- Tested on: HMEC-1 (human microvascular endothelial cells)
- Method Summary: Cell proliferation assay (MTT)
- Type: cell-based
- Recorded Conditions: HMEC-1, 48 h, 2 days incubation, average ± SD of three experiments
pIC50: −log10 of the molar value.
// label = label 1 if pIC50 is not less than 5, otherwise label 0

Problem: Exam item: decide whether the reported pIC50 for "COc1ccc(/C=C\c2cccc(NC(=O)Nc3ccc(Br)cc3)c2)cc1" is at least 5.
Solution: label 0

Problem: Exam item: decide whether the reported pIC50 for "COc1ccc(/C=C/c2cccc(NC(=O)Nc3ccccc3Br)c2)cc1" is at least 5.
Solution: label 1

Problem: Exam item: decide whether the reported pIC50 for "COc1ccc(/C=C\c2cccc(NC(=O)Nc3cccc(Br)c3)c2)cc1" is at least 5.
Solution: label 0

Problem: Exam item: decide whether the reported pIC50 for "COc1ccc(CCc2cccc(NC(=O)Nc3ccc(Br)cc3)c2)cc1" is at least 5.
Solution: label 1

Problem: Exam item: decide whether the reported pIC50 for "COc1ccc(CCc2cccc(NC(=O)Nc3ccccc3Br)c2)cc1" is at least 5.
Solution: label 1
